# system_tested: Solute carrier family 15 member 2 (Rattus norvegicus, UniProt Q63424)
# Sequence (Q63424 whole entry): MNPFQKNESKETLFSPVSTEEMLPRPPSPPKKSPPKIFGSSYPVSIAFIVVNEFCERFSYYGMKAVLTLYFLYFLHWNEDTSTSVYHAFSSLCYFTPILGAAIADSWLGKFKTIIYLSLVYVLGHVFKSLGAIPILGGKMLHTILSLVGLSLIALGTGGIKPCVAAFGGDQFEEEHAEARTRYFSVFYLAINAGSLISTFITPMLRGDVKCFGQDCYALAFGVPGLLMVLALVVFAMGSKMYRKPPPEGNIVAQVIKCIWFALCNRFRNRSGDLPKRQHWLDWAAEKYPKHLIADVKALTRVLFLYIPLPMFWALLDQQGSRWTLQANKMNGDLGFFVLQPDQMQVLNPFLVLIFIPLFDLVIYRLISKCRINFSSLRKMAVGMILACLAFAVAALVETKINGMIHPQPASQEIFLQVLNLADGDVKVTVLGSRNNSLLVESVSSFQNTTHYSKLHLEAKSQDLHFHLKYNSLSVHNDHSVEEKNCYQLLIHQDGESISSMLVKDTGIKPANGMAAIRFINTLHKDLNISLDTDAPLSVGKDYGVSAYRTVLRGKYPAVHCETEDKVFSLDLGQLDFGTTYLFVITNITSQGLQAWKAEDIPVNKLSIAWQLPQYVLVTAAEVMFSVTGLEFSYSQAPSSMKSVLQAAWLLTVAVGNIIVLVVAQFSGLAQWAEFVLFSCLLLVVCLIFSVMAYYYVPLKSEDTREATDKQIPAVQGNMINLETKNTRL
# assay_explanation: TP_TRANSPORTER: inhibition of Gly-Sar uptake in PEPT2-expressing LLC-PK1 cells
pKi: −log10 of the molar value.
Would you mind labelling by pKi? At or over 3 is Condition met, under is Condition not met.

Example results:
> print(dat)
                                   molecule                             system.tested           category
1  Nc1nc(/C(=C/CC(=O)O)C(=O)N[C@@H]2C(=O)N3C(C(=O)O)=CCS[C@H]23)cs1  Solute carrier family 15 member 2 (Rattus norvegicus, UniProt Q63424)  Condition not met
2  CC1=C(C(=O)O)N2C(=O)[C@@H](NC(=O)[C@H](N)c3ccccc3)[C@H]2SC1 [CEPHALEXIN ANHYDROUS]  Solute carrier family 15 member 2 (Rattus norvegicus, UniProt Q63424)      Condition met
3  CC1(C)S[C@@H]2[C@H](NC(=O)C3(N)CCCCC3)C(=O)N2[C@H]1C(=O)O  Solute carrier family 15 member 2 (Rattus norvegicus, UniProt Q63424)      Condition met
4  C=CC1=C(C(=O)O)N2C(=O)[C@@H](NC(=O)/C(=N\OCC(=O)O)c3csc(N)n3)[C@H]2SC1  Solute carrier family 15 member 2 (Rattus norvegicus, UniProt Q63424)  Condition not met
5  CC1=C(C(=O)O)N2C(=O)[C@@H](NC(=O)[C@H](N)C3=CCC=CC3)[C@H]2SC1  Solute carrier family 15 member 2 (Rattus norvegicus, UniProt Q63424)      Condition met

Pending molecule:
Does the reported pKi for C=CC1=C(C(=O)O)N2C(=O)[C@@H](NC(=O)/C(=N\O)c3csc(N)n3)[C@H]2SC1 fall at or above the 3 mark?
Condition not met

----------
# system_tested: Solute carrier family 15 member 1 (Rattus norvegicus, UniProt P51574)
# Sequence (P51574 whole entry): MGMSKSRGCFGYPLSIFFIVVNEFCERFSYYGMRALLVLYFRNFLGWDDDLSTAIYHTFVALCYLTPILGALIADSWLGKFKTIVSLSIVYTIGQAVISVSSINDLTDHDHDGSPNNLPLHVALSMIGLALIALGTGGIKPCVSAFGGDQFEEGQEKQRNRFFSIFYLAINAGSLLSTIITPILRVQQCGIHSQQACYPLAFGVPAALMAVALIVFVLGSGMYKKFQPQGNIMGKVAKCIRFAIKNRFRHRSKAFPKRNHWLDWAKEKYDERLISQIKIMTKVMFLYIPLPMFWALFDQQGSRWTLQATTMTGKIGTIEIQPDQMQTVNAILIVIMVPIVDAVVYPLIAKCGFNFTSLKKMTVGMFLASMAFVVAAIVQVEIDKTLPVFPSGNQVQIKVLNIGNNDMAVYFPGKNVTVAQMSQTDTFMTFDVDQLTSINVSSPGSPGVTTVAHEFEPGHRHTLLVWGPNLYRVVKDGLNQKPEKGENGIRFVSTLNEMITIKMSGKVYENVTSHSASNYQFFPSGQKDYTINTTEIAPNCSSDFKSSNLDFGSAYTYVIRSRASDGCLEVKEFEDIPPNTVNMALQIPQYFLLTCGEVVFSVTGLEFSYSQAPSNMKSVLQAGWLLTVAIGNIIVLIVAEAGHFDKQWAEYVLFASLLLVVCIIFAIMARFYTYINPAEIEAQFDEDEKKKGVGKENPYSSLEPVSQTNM
# assay_explanation: TP_TRANSPORTER: inhibition of Gly-Sar uptake in PEPT1-expressing LLC-PK1 cells
measure_name: log10 Ki (log10 of the value in mM)
Please interpret these as log10 of Ki where Ki is in mM.

GET log10 Ki | system: Solute carrier family 15 member 1 (Rattus norvegicus, UniProt P51574) | item: C=CC1=C(C(=O)O)N2C(=O)[C@@H](NC(=O)/C(=N\O)c3csc(N)n3)[C@H]2SC1 [CEFDINIR]
1.08

GET log10 Ki | system: Solute carrier family 15 member 1 (Rattus norvegicus, UniProt P51574) | item: CC1=C(C(=O)O)N2C(=O)[C@@H](NC(=O)[C@H](N)c3ccc(O)cc3)[C@H]2SC1 [CEFADROXIL]
0.34

GET log10 Ki | system: Solute carrier family 15 member 1 (Rattus norvegicus, UniProt P51574) | item: CC1=C(C(=O)O)N2C(=O)[C@@H](NC(=O)[C@H](N)c3ccccc3)[C@H]2SC1 [CEPHALEXIN ANHYDROUS]
0.65

GET log10 Ki | system: Solute carrier family 15 member 1 (Rattus norvegicus, UniProt P51574) | item: C=CC1=C(C(=O)O)N2C(=O)[C@@H](NC(=O)/C(=N\OCC(=O)O)c3csc(N)n3)[C@H]2SC1 [CEFIXIME]
0.84

GET log10 Ki | system: Solute carrier family 15 member 1 (Rattus norvegicus, UniProt P51574) | item: CC1(C)S[C@@H]2[C@H](NC(=O)C3(N)CCCCC3)C(=O)N2[C@H]1C(=O)O [CYCLACILLIN]
-0.77

GET log10 Ki | system: Solute carrier family 15 member 1 (Rattus norvegicus, UniProt P51574) | item: Nc1nc(/C(=C/CC(=O)O)C(=O)N[C@@H]2C(=O)N3C(C(=O)O)=CCS[C@H]23)cs1 [CEFTIBUTEN]
-0.22

GET log10 Ki | system: Solute carrier family 15 member 1 (Rattus norvegicus, UniProt P51574) | item: CC1(C)S[C@@H]2[C@H](NC(=O)[C@H](N)c3ccc(O)cc3)C(=O)N2[C@H]1C(=O)O [AMOXICILLIN]
1.11

GET log10 Ki | system: Solute carrier family 15 member 1 (Rattus norvegicus, UniProt P51574) | item: CC1(C)S[C@@H]2[C@H](NC(=O)[C@H](N)c3ccccc3)C(=O)N2[C@H]1C(=O)O [AMPICILLIN]
1.68

GET log10 Ki | system: Solute carrier family 15 member 1 (Rattus norvegicus, UniProt P51574) | item: CC1=C(C(=O)O)N2C(=O)[C@@H](NC(=O)[C@H](N)C3=CCC=CC3)[C@H]2SC1 [CEPHRADINE]
0.93

----------
Recorded Ki by entry
# system_tested: Solute carrier family 15 member 2 (Rattus norvegicus, UniProt Q63424)
# assay_explanation: TP_TRANSPORTER: inhibition of Gly-Sar uptake in PEPT2-expressing LLC-PK1 cells
Supply the numeric figure in µM, leaving out any unit text.

> print(dat)
                                 mol.smiles  measure.name  assay.value
1  CC1=C(C(=O)O)N2C(=O)[C@@H](NC(=O)[C@H](N)c3ccc(O)cc3)[C@H]2SC1            Ki            3
2  CC1(C)S[C@@H]2[C@H](NC(=O)[C@H](N)c3ccccc3)C(=O)N2[C@H]1C(=O)O            Ki          669

With those in mind, consider the next molecule.
Return the recorded Ki value; entry: CC1(C)S[C@@H]2[C@H](NC(=O)[C@H](N)c3ccc(O)cc3)C(=O)N2[C@H]1C(=O)O
179
